target: ICAM1; settings: ASO; further: test concentration or dose not given here
These antisense oligonucleotides have a phosphorothioate backbone; sugars and methylation of C are not fully specified.
Measured endpoint: remaining target (mRNA or protein) (fraction of control)

# Sequence record, Reported relation, Endpoint value
measured = [
    ("CTCTGAGTAGCAGAGGAGCTC", "=", 0.17),
    ("CAAGTGTGCATCCCCCAGGC", "=", 0),
    ("AGCTGCGCTGCTACCTGCAC", "=", 0.25),
    ("GGGCCACTTCTTCTGTAA", "=", 0.33),
    ("CACATGTCTATGGAGGG", "=", 0.89),
    ("CCCCCACCACTTCCCCTCTC", "=", 0),
    ("GAGTAGCAGAGGAGC", "=", 0.61),
    ("TGATCCTTTATAGCGCTAGCC", "=", 0.9),
    ("GGAGCTCAGCGTCGA", "=", 0.85),
    ("CCAGAGGAAGTGGCTGAGGG", "=", 0.35),
    ("GGCTGAGGTTG", "=", 0.9),
    ("ACACATACACACACACACACA", "=", 0.54),
    ("TGCTTACCCTCCCACAGCAG", "=", 0.1),
    ("TGCCAGTCCACATAGTGTTT", "=", 0.25),
    ("AGCCACCTGGGGGCCAAGGGG", "≥", 1),
    ("CTCATCCAGCAGGCTCAGGG", "=", 0.75),
]
